# System: Mus musculus
# experimentSummary: Antihyperglycemic activity in C57BL/KsJ db/db mouse at 25 mg/kg, sc administered twice a day for 4 days and once on day 5 after 60 mins of load injection by insulin suppression test relative to control
# Assay type: functional
# runConditions: route subcutaneous
propertyName: Activity (%)
The response must be a number in % with no trailing unit.

[[record]]
compound = "N=C(NCCCCCCN)NCC1CC1"
targetofassay = "Mus musculus"
propertyname = "Activity"
scaleunit = "%"
measurednumber = -18

[[record]]
compound = "CC(C)=CCNC(=N)N[C@H]1CC[C@H](N)CC1"
targetofassay = "Mus musculus"
propertyname = "Activity"
scaleunit = "%"
measurednumber = -22

[[record]]
compound = "CN1CCN(/C(=N\\c2ccc(F)cc2)NCCCCCCN)CC1"
targetofassay = "Mus musculus"
propertyname = "Activity"
scaleunit = "%"
measurednumber = -12

[[record]]
compound = "CC(C)=CCNC(=N)NCC1CCC(CN)CC1 (stereo not drawn)"
targetofassay = "Mus musculus"
propertyname = "Activity"
scaleunit = "%"
measurednumber = -29

[[record]]
compound = "CC(C)=CCNC(=N)NCCCCCN"
targetofassay = "Mus musculus"
propertyname = "Activity"
scaleunit = "%"
measurednumber = -13


Challenge: # get_value(readout='Activity', item= CC(C)=CCNC(=N)NCCCCN )
Response given: -11

Challenge: Look at this compound and give its reported Activity. N=C(NCCCCCCBr)NCC1CC1
Response given: -20

Challenge: Request the reported Activity associated with CC(C)=CCNC(=N)NCCCCCCN
Response given: -13
